Experiment: MAD study in healthy volunteers: whole blood and plasma PK
Assay type: in vivo, human
Conditions: human; HV MAD Day 14, 25 mg QD maintenance; whole blood; read-out: Cmin
Quantity name: concentration at 14 day (µg/mL)

Compound | Quantity name | Meas value
O=Cc1c(O)cccc1OC[C@@H]1COCCN1C(=O)c1cccnc1CCO [Compound I] | concentration at 14 day | 135

---

Assay: SAD study in healthy volunteers: PK in plasma, whole blood, red blood cells
Type: in vivo, human
Conditions: human; HV single oral 400 mg (Cohort 5); whole blood; geometric mean

Compound | AUC(0-inf)
O=Cc1c(O)cccc1OC[C@@H]1COCCN1C(=O)c1cccnc1CCO [Compound I] | 67200 µg·h/mL
